Item-by-item account of koff
# EXPERIMENTAL SYSTEM: T1, extracellular region of human PD-L1 protein (positions 19-238 of SEQ ID NO: 3) (human, UniProt Q9NZQ7 19-238)
# T1 construct: also called Human PD-L1-his; antigen PD-L1
# T1 sequence (Q9NZQ7 19-238): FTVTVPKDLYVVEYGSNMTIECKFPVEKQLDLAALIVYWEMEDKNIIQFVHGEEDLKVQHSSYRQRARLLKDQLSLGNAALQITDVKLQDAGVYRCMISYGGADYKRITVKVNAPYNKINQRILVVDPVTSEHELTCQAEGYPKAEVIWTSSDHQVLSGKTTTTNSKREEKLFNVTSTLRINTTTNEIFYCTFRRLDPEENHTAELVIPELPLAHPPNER
# ASSAY: ForteBio Octet (BLI), antibody immobilized, PD-L1 ECD 6.25-200 nM; antibody after purification
Please reply with the bare figure in s⁻¹ and do not write the unit itself.

BINDER: murine antibody 10A3 (A11) (antibody, V domains shown, Mouse hybridoma antibody (subclone 10A3-3); Only variable domains printed; also called 10A3-3) VH: QVQLKQSGPGLVAPSQSLSITCTVSGFSLTGYGVNWVRQPPGKGLEWLGKIWGDGITDYNSALKSRLSISKDNSKSQVFLKMNSLQTEDTARYYCARDVMDYWGQGTSVTVSS VL: QIVLTQSPAIMSASPGEKVTMTCSASSSINYMHWFQQKPGTSPKRWIYDTSKLASGVPARFSGSESGTSYSLTISSMEAEDAATYYCHHRSPYPTFGAGTKLELKR
UNIT ABBREV: s⁻¹
koff: 0.0296
--
BINDER: murine antibody 6G5 (A12) (antibody, V domains shown, Mouse hybridoma antibody (subclone 6G5-2); Only variable domains printed; the printed VL is identical to that of 13C9; also called 6G5-2) VH: QVQLKQSGAELVRPGTSVKMSCKATEYTFTNNWIAWVKQRPGHGLEWIGDIHPGGGYTNYNEKFKGKATLTADTSSSTAYMQLSSLTSEDSAIYYCAGSKTRDYDSWFAYWGQGTLVTVSA VL: DIVITQSPAIMSASPGEKVTMTCSASSSVSKMNWYQQKSGTSPKRWIYDTSKLASGVPSRFSGSGSGTSYSLTISSMEAEDAATYYCQQWSSNPLTFGSGTKLELKR
UNIT ABBREV: s⁻¹
koff: 0.000838

*Q* Would you kindly share the measured koff for murine antibody 13C9 (A3) (antibody, V domains shown, Mouse hybridoma antibody (subclone 13C9-1), tested as culture supernatant or purified; Only variable domains printed (the VL as printed ends in RA); also called 13C9-1) VH: QVQLKQSGAGLVKPGASVKLSCKASGYIFTEYIIHWVKQRSGQGLEWIGWFYPGSDNIKYNEKFKDKATLTADKSSSTVYMELSRLTSEDSAVYFCARHETGYFFDYWGQGTTLTVSS VL: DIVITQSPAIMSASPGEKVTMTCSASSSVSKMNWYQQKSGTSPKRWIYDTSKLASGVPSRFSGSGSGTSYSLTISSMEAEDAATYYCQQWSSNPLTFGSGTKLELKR ?
*A* 0.00117
